system: SNB-19 CNS; assay: NCI-60 one-dose screen, 48 h; settings: 10 µM
Compounds without any hit were thinned out: in the full panel of roughly 83,000, 20% have a hit. The source made the active and inactive calls. How the source made its calls: active means growth percent below 10; inactive means the rest.
Your answer must be one of the following: true (active), false (inactive)

>>> print(df.to_string())
                                   compound  label_value
0  COc1ccc(CN2[C@H](C(=O)NCc3ccc(C(=O)NO)cc3)Cc3c([nH]c4ccccc34)[C@H]2C2CC2)cc1        false

Q. Please indicate how the test categorized N#Cc1ccc(NC(=O)CSc2ccc(-c3ccc(Br)cc3)nn2)cc1 .
A. false

Q. Entry CCOC(=O)C1=C(N)N(c2ccccc2)C2=C(C(=O)CC(C)(C)C2)C1c1ccc(Cl)cc1 (stereo unspecified) : call = ?
A. false

Q. Outcome? C=C1CCC2C3(C)COC(c4cccc(F)c4)OC3CCC2(C)C1CC(O)C1=CCOC1=O (stereo unspecified)
A. false

Q. Hey, what did the test say about O=C(Cn1nc(-c2ccccc2)ccc1=O)NN1C(=O)c2ccccc2C1=O ?
A. false

Q. GET /call?item= CC(=O)NS(=O)(=O)c1ccc(NC(=O)CSC2=NC(c3ccccc3)C(C(C)=O)=C(C)N2)cc1 (stereo unspecified) returns the recorded outcome of this test.
A. false

Q. # lookup: test call for O=c1[nH]c2ccc(Cl)cc2cc1CSc1ccc(Nc2nccc(-c3ccc4ccccc4c3)n2)cc1
A. false

Q. Recorded test outcome, item CCCCCCCCCCCCCCCCCCCC(=O)NCCc1c[nH]c2ccc(OC(=O)NOCCOCCOCCOCCOCCOCCOCCOCCOCCOCCOCCOCCOCCOCCOCCOCCOCCOCCOCCOCCOCCOCCOC)cc12
A. false

Q. // outcome(item) with item = CC(=O)c1ccc(NC(=O)NCn2c(=O)[nH]c3ccccc3c2=O)cc1
A. false

---

tested on: SF-295 CNS; experiment: NCI-60 one-dose screen, 48 h; settings: 10 µM
This is part of a sample that, as a whole, favours compounds with a hit. Of some 83,000 tested, about 20% had one in any assay. Calls of active or inactive are those of the source. How the source made its calls: active means growth percent below 10; inactive means the rest.
Hello, when you answer, please use one of the following outcomes: true for active, false for inactive

Please review the entries below; each comes with its answer.
In [3]: df
Out[3]:
                                        smi  label_value
0  CC(=O)Nc1nc(-c2ccc(N3CCN(C)CC3)c(NS(=O)(=O)c3ccc(C(F)(F)F)cc3)c2)cs1        false
1    CC(C)Sc1nc(NC2CC2)c(C#N)c(-c2ccccc2)n1        false
2  N#Cc1c(NC(=O)c2ccc(C(F)(F)F)c(Cl)c2)sc2c1CCC(=O)C2         true

Q. Hi, do you know how O=C(NO)c1ccc(CNC(=O)[C@H]2Cc3c([nH]c4ccccc34)[C@H](c3ccc(Cl)cc3)N2)cc1 came out in this test?
A. true

Q. Dear colleague, could you share the recorded outcome for Cn1cc(-c2cc(N)n3nc(-c4c[nH]c5ccc(Br)cc45)cc3n2)c2cccnc21 when you have a moment?
A. true

---

system: TK-10 renal; experiment: NCI-60 one-dose screen, 48 h (100 = growth as untreated, 0 = no growth, -100 = all killed); conditions: 10 µM
Compounds without any hit were thinned out: in the full panel of roughly 83,000, 20% have a hit.
Known growth of a selection of compounds
# unit: % | format: bare number

Before answering, review these 2 worked examples.
                                   compound  measurement
0  Cc1ccc(C(=O)CSc2nnc(-c3c[nH]c4ccccc34)n2-c2ccccc2)cc1        -2.18
1  Cn1cc(-c2cc(N)n3nc(-c4c[nH]c5ccc(Br)cc45)cc3n2)c2cccnc21        -85.9

Q. Query for TK-10 renal: what growth does the record show for CCC(C)S(=O)(=O)c1oc(-c2ccc(C)cc2)nc1S(=O)(=O)c1ccccc1 (stereo unspecified) ?
A. -99.5

Q. Reported growth for TK-10 renal, given O=C(CSc1nnc(-c2ccc3nc(-c4ccccc4)[nH]c3c2)o1)Nc1ccc(Cl)cc1 ?
A. 55

Q. What measured growth is associated with COc1cccc(-c2nn(-c3ccccc3)cc2-c2ccnc(NCCCNC(=O)Nc3ccc(F)cc3)c2)c1 on TK-10 renal?
A. 49.8

Q. Could you share what growth was measured for N#Cc1ccc(-c2nn(-c3ccc(C(=O)O)cc3)cc2CNc2ccc(Oc3ccccc3)cc2)cc1 , tested on TK-10 renal?
A. 77.1

Q. API: value(readout=growth, system=TK-10 renal) for record O=C(NO)c1ccc(Cn2ccc3c(Nc4ccccc4)ncnc32)cc1
A. 2.65

Q. Please tell me: growth of COC(=O)C[C@](O)(CCCC(C)(C)O)C(=O)O[C@H]1C(OC)=C[C@@]23CCC(=O)N2CCc2cc4c(cc2[C@@H]13)OCO4 , system TK-10 renal?
A. 101

Q. Form entry - test system: TK-10 renal; read-out: growth; compound: CO[C@H]1CSS[C@@H]1Cn1nc(-c2ccc(Oc3ccccc3)cc2)c2c(N)ncnc21
A. 0.0625

Q. Given the entry COc1ccccc1[C@H]1C(C(=O)c2ccc(Cl)cc2)C2(N[C@@H]1c1ccccc1)C(=O)Nc1ccccc12 (stereo partly specified) , what growth was observed with TK-10 renal?
A. 8.59

Q. # value lookup — system TK-10 renal, readout growth, item N#Cc1c(-c2ccc(Cl)cc2)cc(-c2ccccc2)nc1OCc1ccccc1
A. 97.8

Values were extracted from PubChem BioAssay (NCI).
